assayed-target: Phosphoglycerate kinase, glycosomal (Trypanosoma brucei brucei) (UniProt P07378)
Sequence (P07378 whole entry, looked up): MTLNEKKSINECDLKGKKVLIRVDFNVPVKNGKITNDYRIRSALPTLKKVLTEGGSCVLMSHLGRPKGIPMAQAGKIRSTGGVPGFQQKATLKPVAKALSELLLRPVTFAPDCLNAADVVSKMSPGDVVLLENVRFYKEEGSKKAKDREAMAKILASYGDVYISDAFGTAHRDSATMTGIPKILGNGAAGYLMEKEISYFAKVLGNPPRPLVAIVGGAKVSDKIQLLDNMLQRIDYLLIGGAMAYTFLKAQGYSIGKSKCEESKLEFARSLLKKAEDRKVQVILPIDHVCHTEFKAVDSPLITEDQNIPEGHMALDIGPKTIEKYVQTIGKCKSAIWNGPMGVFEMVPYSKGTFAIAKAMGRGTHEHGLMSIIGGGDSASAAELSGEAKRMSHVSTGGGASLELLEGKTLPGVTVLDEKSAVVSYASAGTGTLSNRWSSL
method-summary: qHTS Validation Assay to Find Inhibitors of Phosphoglycerate Kinase (AID 504547)
run-parameters: enzymatic PGK inhibition, coupled luminescence read-out; series mostly up to 57.5 µM
Active and inactive are the calls of the source. The call rests on the fitted dose curve; in most records, active means well fitted inhibition curve with a large enough effect; inconclusive means small, poorly fitted or top-dose-only effect; inactive means flat fitted curve, though single readings scatter.
Output constraint: value belongs to active, inactive

Consider the following illustrative entries.
>>> assigned_category("CN1CCc2cccc(Cl)c2CC1")
"inactive"
>>> assigned_category("CCCC[N+]1(C)C2CC(OC(=O)[C@H](CO)c3ccccc3)CC1C1OC12 (some centres not stated)")
"inactive"
>>> assigned_category("C[C@H](Cc1ccc2c(c1)OC(C(=O)O)(C(=O)O)O2)NC[C@H](O)c1cccc(Cl)c1")
"inactive"
>>> assigned_category("C=CCN1CC[C@]23c4c5ccc(O)c4O[C@@H]2/C(=N/N=C2\\CC[C@@]4(O)C6Cc7ccc(O)c8c7[C@@]4(CCN6CC=C)[C@@H]2O8)CC[C@@]3(O)C1C5")
"inactive"

input: Could you please tell me the result logged for NC(C(=O)O)c1cc(=O)[nH]o1 (configuration not stated) in this assay?
output: inactive
